Numbers sourced from patent US20240209076A1.

assayedTarget: T1, recombinant human IL-6 (human, UniProt P05231 30-212)
T1 construct: Bought protein
T1 sequence (P05231 30-212 limits assumed): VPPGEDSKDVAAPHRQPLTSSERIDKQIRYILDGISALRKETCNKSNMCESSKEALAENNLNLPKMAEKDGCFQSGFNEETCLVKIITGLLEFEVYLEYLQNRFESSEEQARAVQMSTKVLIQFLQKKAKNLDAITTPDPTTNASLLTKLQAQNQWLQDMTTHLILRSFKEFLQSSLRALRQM
experimentalDetails: SPR Biacore, purified Ab on Protein A chip, IL-6 analyte, 37 C
What pKd was measured for each of the following?
A value of pKd is the negative decimal logarithm of a concentration given in moles per litre.

For anti-IL-6 antibody, light chain M50D (heavy chain WT) (antibody, V domains shown, See note of m2; also called WT / M50D) VH: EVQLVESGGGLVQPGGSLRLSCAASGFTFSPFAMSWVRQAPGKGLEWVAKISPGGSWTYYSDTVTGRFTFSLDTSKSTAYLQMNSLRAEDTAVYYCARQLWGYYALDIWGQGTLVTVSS VL: DIQLTQSPSSLSASVGDRVTITCSASISVSYMYWYQQKPGKAPKLLIYDDSNLASGVPSRFSGSGSGTDFTLTISSLQPEDFATYYCMQWSGYPYTFGQGTKVEIK the binder record lists pKd as 9.51

For anti-IL-6 antibody, light chain M88V (heavy chain WT) (antibody, V domains shown, See note of m2; also called WT / M88V) VH: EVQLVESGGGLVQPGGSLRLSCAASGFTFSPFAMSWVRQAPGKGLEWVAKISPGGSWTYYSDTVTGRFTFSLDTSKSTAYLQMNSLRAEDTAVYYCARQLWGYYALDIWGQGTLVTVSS VL: DIQLTQSPSSLSASVGDRVTITCSASISVSYMYWYQQKPGKAPKLLIYDMSNLASGVPSRFSGSGSGTDFTLTISSLQPEDFATYYCVQWSGYPYTFGQGTKVEIK the binder record lists pKd as 9.15

For anti-IL-6 antibody, heavy chain variant I (M34I, G66D, I108V) / light chain variant V (M32L, M50D, M88Q) (antibody, V domains shown, See note of m39; also called M34I, G66D, I108V/ M32L, M50D, M88Q; I/V) VH: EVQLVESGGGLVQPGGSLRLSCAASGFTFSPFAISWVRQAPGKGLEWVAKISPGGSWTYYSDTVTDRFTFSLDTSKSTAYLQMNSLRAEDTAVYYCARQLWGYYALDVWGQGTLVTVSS VL: DIQLTQSPSSLSASVGDRVTITCSASISVSYLYWYQQKPGKAPKLLIYDDSNLASGVPSRFSGSGSGTDFTLTISSLQPEDFATYYCQQWSGYPYTFGQGTKVEIK the binder record lists pKd as 9.22
